# SUBJECT_OF_TEST: human dopamine D2L receptor (Homo sapiens)
# Sequence (P14416 whole entry): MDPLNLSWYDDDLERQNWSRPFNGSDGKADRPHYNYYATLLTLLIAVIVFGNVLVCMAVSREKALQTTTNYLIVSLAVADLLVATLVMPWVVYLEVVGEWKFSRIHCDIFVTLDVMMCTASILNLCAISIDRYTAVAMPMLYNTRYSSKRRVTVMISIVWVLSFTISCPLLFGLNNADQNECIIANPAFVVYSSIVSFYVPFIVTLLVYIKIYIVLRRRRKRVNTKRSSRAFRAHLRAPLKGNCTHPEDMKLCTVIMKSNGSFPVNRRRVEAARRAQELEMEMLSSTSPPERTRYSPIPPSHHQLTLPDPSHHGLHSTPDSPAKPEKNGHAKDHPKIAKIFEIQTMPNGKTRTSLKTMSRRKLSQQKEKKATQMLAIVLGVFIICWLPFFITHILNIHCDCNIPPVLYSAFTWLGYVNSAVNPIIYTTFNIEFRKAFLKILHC
# PROTOCOL_DESCRIPTION: Dopamine D2L radioligand binding ([3H]Spiperone)
# PROTOCOL_CONDITIONS: compound at 1 μM; […] [3H]Spiperone; read-out: Inhibition of ligand binding, Dopamine D2L (percent inhibition of specific binding)
Returns Satisfied if the recorded inhibition at 1 µM is greater than or equal to 40%, and Not satisfied otherwise.

Some entries whose results are on file:
- C=CCN1CCc2c(c3cc(Cl)ccc3n2/C=C(\C)c2ccncc2)C1 [compound 406]: Satisfied
- Cc1ccc2c(c1)c1c(n2/C(=C(/F)c2ccc(C)nc2)c2ccc(C)nc2)CCN(C)C1 [compound 419]: Not satisfied
- C=C(Cn1c2c(c3cc(OC)ccc31)CN(C)CC2)c1ccncc1 [Compound No. 356]: Not satisfied
- C/C(=C\n1c2c(c3cc(N(C)C)ccc31)CN(C)CC2)c1ccc(F)cc1 [compound 442]: Satisfied
- CN1CCc2c(c3cc(Cl)ccc3n2C#Cc2ccc(C(F)(F)F)nc2)C1 [Compound No. 486]: Not satisfied

Turning to the following compound.
I'd appreciate it if you could say whether Cc1ccc2c(c1)c1c(n2C(C)(C)C(O)c2ccccc2)CCN(C)C1 (stereo not drawn) [Compound No. 467] has inhibition at 1 µM at least equal to 40%.
Not satisfied

---

# SUBJECT_OF_TEST: human dopamine D2L receptor (Homo sapiens)
# PROTOCOL_DESCRIPTION: Dopamine D2L radioligand binding ([3H]Spiperone)
# PROTOCOL_CONDITIONS: compound at 1 μM; […] [3H]Spiperone; read-out: Inhibition of ligand binding, Dopamine D2L (percent inhibition of specific binding)
Binning rule for recorded inhibition at 1 µM: L: < 20%; M: ≥ 20% and < 70%; H: ≥ 70%

Solved cases below.
* Cc1ccc(C#Cn2c3c(c4cc(Cl)ccc42)CN(C)CC3)cn1 | L
* C/C(=C/n1c2c(c3cc(C)ccc31)CN(C)CC2)C1CCCCC1 | H
* COCCNc1ccc2c(c1)c1c(n2/C=C(\C)c2ccncc2)CCN(C)C1 | L

Moving on to the next compound.
GET /class?item= C=CCN1CCc2c(c3cc(C)ccc3n2/C=C(\C)c2ccncc2)C1
H

---

# SUBJECT_OF_TEST: human recombinant adrenergic α2B receptor (Homo sapiens, UniProt P18089)
# Construct: expressed in transfected cells; host or cells: Chinese hamster ovary (CHO-K1) cells
# Sequence (P18089 1-450): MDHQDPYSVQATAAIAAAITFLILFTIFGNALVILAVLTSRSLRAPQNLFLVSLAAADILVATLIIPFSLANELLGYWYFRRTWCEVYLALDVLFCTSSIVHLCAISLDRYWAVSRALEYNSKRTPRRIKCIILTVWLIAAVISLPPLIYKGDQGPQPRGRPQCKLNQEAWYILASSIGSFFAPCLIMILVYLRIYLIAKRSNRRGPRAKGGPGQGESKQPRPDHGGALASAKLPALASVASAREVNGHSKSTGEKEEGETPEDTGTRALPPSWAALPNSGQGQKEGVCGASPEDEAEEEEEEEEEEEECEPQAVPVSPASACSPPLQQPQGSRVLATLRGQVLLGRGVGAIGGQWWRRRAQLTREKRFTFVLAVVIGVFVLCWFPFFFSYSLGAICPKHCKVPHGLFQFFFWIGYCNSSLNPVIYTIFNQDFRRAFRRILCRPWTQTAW
# PROTOCOL_DESCRIPTION: Adrenergic α2B radioligand binding ([3H]Rauwolscine)
# PROTOCOL_CONDITIONS: compound at 1 μM; […] [3H]Rauwolscine; read-out: Inhibition of ligand binding, Adrenergic α2B (percent inhibition of specific binding)
Entries annotated with measured inhibition at 1 µM
Express the result in % but write the number alone.

* Cc1ccc2c(c1)c1c(n2CC#Cc2ccccn2)CCN(C)C1 | 23

Would you kindly share the measured inhibition at 1 µM for Cc1ccc2c(c1)c1c(n2C#Cc2ccc(Cl)cc2)CCN(C)C1 ?
98

Entry under review: Cc1ccc2c(c1)c1c(n2C#Cc2ccc(F)cc2)CCN(C)C1 . Reported inhibition at 1 µM?
106

Quick check: inhibition at 1 µM of CN1CCc2c(c3cc(Cl)ccc3n2C#Cc2ccc(F)cc2)C1 ?
106

---

# SUBJECT_OF_TEST: human recombinant adrenergic α2A receptor (Homo sapiens, UniProt P08913)
# Construct: expressed in transfected cells; host or cells: insect Sf9 cells
# Sequence (P08913 whole entry): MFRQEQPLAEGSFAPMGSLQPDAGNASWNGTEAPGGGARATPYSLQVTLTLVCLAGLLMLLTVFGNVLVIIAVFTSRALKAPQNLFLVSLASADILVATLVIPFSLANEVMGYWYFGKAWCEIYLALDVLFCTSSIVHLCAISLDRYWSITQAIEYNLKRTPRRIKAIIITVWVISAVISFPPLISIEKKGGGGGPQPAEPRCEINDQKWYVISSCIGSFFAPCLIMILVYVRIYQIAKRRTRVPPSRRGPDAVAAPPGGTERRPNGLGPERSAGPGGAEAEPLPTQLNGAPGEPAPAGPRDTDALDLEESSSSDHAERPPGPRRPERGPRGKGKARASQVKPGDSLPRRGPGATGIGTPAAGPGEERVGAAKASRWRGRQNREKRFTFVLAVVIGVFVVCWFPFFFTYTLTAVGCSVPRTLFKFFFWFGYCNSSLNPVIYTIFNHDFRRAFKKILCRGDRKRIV
# PROTOCOL_DESCRIPTION: Adrenergic α2A radioligand binding ([3H]MK-912)
# PROTOCOL_CONDITIONS: percent inhibition of specific binding; compound at 1 μM; read-out: Inhibition of ligand binding, Adrenergic α2A
molecules and their reported inhibition at 1 µM
Number only, in %; omit the unit.

Examples with answers:
* CCC(O)(Cn1c2c(c3cc(Cl)ccc31)CN(C)CC2)c1ccc(F)cc1 (stereo not shown) [Compound 78] | 91
* CN1CCc2c(c3cc(Cl)ccc3n2CC(O)(c2ccc(F)cc2)C2CC2)C1 (stereo not shown) [Compound 82] | 96
* C/C(=C\n1c2c(c3cc(C)ccc31)CN(C)CC2)c1ccc(F)cc1 [Compound 87] | 95

// next entry
May I ask what inhibition at 1 µM has been recorded for CN1CCc2c(c3cc(Cl)ccc3n2CC(C)(O)c2ccc(F)cc2)C1 (stereo not shown) [Compound 45] ?
89

---

# inhibition at 1 µM values compiled below
# SUBJECT_OF_TEST: human recombinant serotonin (5-Hydroxytryptamine) 5-HT6 receptor (Homo sapiens, UniProt P50406)
# Construct: expressed in transfected cells; host or cells: human HeLa cells
# Sequence (P50406 whole entry): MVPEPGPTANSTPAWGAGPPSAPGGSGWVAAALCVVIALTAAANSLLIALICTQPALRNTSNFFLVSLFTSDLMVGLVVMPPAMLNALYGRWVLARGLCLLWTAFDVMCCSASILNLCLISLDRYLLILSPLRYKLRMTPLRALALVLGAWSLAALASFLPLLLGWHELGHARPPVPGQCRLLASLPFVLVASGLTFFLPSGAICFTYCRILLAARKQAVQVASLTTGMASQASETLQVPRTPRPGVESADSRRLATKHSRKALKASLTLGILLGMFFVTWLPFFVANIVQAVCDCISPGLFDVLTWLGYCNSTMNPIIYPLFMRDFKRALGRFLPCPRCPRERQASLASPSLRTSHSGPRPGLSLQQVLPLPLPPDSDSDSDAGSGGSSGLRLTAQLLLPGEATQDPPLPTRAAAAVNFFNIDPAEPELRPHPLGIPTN
# PROTOCOL_DESCRIPTION: Serotonin 5-HT6 radioligand binding ([3H]LSD)
# PROTOCOL_CONDITIONS: compound at 1 μM; read-out: Inhibition of ligand binding, Serotonin 5-HT6 (percent inhibition of specific binding)
Give just the numeric value; % need not be written.

• C/C(=C\n1c2c(c3cc(Cl)ccc31)CN(C)CC2)c1cccc(F)c1 = 101
• COc1ccc2c(c1)c1c(n2/C=C(/C)c2ccncc2)CCN(C)C1 = 104
• C/C(=C\n1c2c(c3cc(C)ccc31)CN(C)CC2)c1ccc(Cl)c(Cl)c1 = 97
• C/C(=C\n1c2c(c3cccc(Cl)c31)CN(C)CC2)c1ccncc1 = 102
• CCCCC(O)(Cn1c2c(c3cc(Cl)ccc31)CN(C)CC2)c1ccc(F)cc1 (stereo not drawn) = 95
• C/C(=C\n1c2c(c3cc(C)ccc31)CN(C)CC2)c1ccc(F)c(F)c1 = 97
• Cc1ccc2c(c1)c1c(n2/C=C/c2ccc(C)nc2)CCN(C)C1 = 71
• C/C(=C\n1c2c(c3cc(C)ccc31)CN(C)CC2)c1ccc(O)cc1 = 99
• C/C(=C\n1c2c(c3cc(C)ccc31)CN(C)CC2)c1ccc(F)cc1 = 101
• CCN1CCc2c(c3cc(C)ccc3n2CC(O)c2ccc(C)cc2)C1 (racemic) = 83

State the recorded inhibition at 1 µM for this entry: CN1CCc2c(c3ccccc3n2CC(C)(O)c2ccncc2)C1 (stereo not drawn)
12

Given the compound COc1ccc(C#Cn2c3c(c4cc(Cl)ccc42)CN(C)CC3)cc1F , what is its reported inhibition at 1 µM?
89

May I ask what inhibition at 1 µM has been recorded for C/C(=C/n1c2c(c3cc(C)ccc31)CN(C)CC2)c1cc(F)c(F)cc1Cl ?
99

I'd like to know its inhibition at 1 µM. The compound in question is CN1CCc2c(c3cc(Cl)ccc3n2CC(C)(O)c2ccc(F)cc2)C1 (stereo not drawn)
94

Bench note: what inhibition at 1 µM did COc1ccc(/C(C)=C/n2c3c(c4cc(C)ccc42)CN(C)CC3)cc1F show?
94

# query: inhibition at 1 µM of entry C=C(Cn1c2c(c3cccc(Cl)c31)CN(C)CC2)c1ccc(F)cc1
103

Entry C=C(Cn1c2c(c3cccc(F)c31)CN(C)CC2)c1ccc(F)cc1 : reported inhibition at 1 µM = ?
100

Name the recorded inhibition at 1 µM for C/C(=C/n1c2c(c3cc(C)ccc31)CN(C)CC2)c1ccc(Cl)c(Cl)c1 .
103

---

Entries and their measured inhibition at 1 µM follow.
# SUBJECT_OF_TEST: human recombinant serotonin (5-Hydroxytryptamine) 5-HT2A receptor (Homo sapiens)
# Construct: expressed in transfected cells; host or cells: Chinese hamster ovary (CHO-K1) cells
# Sequence (P28223 whole entry): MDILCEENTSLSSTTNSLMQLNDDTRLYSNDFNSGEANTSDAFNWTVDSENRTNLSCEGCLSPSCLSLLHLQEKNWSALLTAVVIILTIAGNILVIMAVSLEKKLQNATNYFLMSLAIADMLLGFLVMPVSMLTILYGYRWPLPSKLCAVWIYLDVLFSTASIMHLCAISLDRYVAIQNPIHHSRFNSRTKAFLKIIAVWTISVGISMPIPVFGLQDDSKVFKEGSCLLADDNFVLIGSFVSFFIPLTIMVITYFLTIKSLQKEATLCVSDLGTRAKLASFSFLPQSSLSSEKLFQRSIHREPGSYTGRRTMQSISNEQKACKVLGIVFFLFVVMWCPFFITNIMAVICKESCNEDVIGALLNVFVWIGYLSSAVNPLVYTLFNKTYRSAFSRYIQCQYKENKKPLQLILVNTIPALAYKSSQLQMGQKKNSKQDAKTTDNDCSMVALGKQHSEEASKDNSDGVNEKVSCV
# PROTOCOL_DESCRIPTION: Serotonin 5-HT2A radioligand binding ([3H]Ketanserin)
# PROTOCOL_CONDITIONS: read-out: Inhibition of ligand binding, Serotonin 5-HT2A (percent inhibition of specific binding), compound at 1 μM
Numeric answer only, unit % assumed.

* Cc1ccc2c(c1)c1c(n2/C=C/c2ccccc2)CCN(C)C1 [Compound 202] | 101

What value of inhibition at 1 µM has been recorded for this entry: C/C(=C/n1c2c(c3cc(C)ccc31)CN(C)CC2)c1cccc(F)c1 [Compound 225]
99

Tell me the measured inhibition at 1 µM of COc1ccc2c(c1)c1c(n2CC(C)(O)c2ccncc2)CCN(C)C1 (stereo not drawn) [Compound 188] , please.
50

So what does the record say about inhibition at 1 µM for C/C(=C\n1c2c(c3cc(C)ccc31)CN(C)CC2)c1ccc(O)cc1 [Compound 235] ?
98

Would you mind telling me what inhibition at 1 µM value was observed for Cc1ccc2c(c1)c1c(n2C#Cc2ccc(Cl)cc2)CCN(C)C1 [Compound No. 481] ?
101

Which measured inhibition at 1 µM value corresponds to C/C(=C\n1c2c(c3c(Cl)c(Cl)ccc31)CN(C)CC2)c1ccc(F)cc1 [Compound 232] ?
99
